Study the reported pIC50 values for IRAK4 (Homo sapiens (Human), UniProt Q9NWZ3) given below; they originate from different publications.
pIC50: −log10 of the molar value.
Please enter true (1) where pIC50 is greater than or equal to 8, and false (0) where it is lower.

Given CC(C)Nc1cc(-n2ncc3cc(C#N)cnc32)ncc1-n1cc(CCC(C)(C)OC(=O)CN(C)C)nn1 , state whether its pIC50 is at least 8.
true (1)

// next record Cn1cc(NC(=O)c2cnn3ccc(NC4CCCCC4O)nc23)c(C(N)=O)n1 (stereo not shown)
false (0)

// next record CC(C)Oc1cc2nc(C34COC(C)(C3)C4)cn2cc1C(=O)Nc1cccn([C@H]2C[C@H]2C)c1=O
true (1)

// next record O=C(Nc1cccn([C@H]2C[C@H]2F)c1=O)c1cn2cc(C34COC(C3)C4)nc2nc1OC1CCC1 (single isomer, unassigned)
true (1)

---

Study the reported pIC50 values for IRAK4 (Homo sapiens (Human), UniProt Q9NWZ3) given below; they originate from different publications.
// pIC50 is dimensionless: -log10 of concentration (M)

// fetch IRAK4 (Homo sapiens (Human), UniProt Q9NWZ3) pIC50 for COc1cc2nn([C@H]3CC[C@H](CN(C)C4CCC5(CC4)CCN(C(=O)c4ccc(Cl)c(N6CCC(=O)NC6=O)c4)CC5)CC3)cc2cc1NC(=O)c1cccc(C(F)(F)F)n1
8.20

// next record N#Cc1ccc(-c2cnc(Nc3cccc(C(=O)N4CCCC4)c3)nc2N[C@H]2[C@@H](C(N)=O)[C@@H]3C=C[C@H]2C3)cc1
8.05

// next record CCC(C)Nc1cc(Nc2ccn3nccc3n2)ncc1C(=O)NC[C@@H](F)C(C)(C)O (some centres unmarked)
8.18

// next record CC(C)(O)c1cc2nn(C3CCN(CCC4CCC5(CC4)CCN(C(=O)c4ccc(F)c(C6CCC(=O)NC6=O)c4)CC5)CC3)cc2cc1NC(=O)c1cccc(C(F)(F)F)n1 (centres unmarked)
7.45

// next record COc1ccc(OCC(O)Cn2cc(-c3cnc(-n4ncc5cc(C#N)cnc54)cc3NC(C)C)nn2)cc1 (centres unmarked)
7.57

// next record C[C@H](O)C(=O)N1CCC(N2CC(n3cc(NC(=O)c4cccc(-c5cnn(CC(F)F)c5)n4)c(C(F)F)n3)C2)CC1
9.00

// next record CC(C)(O)[C@H]1CC[C@H](NC(=O)c2cnc(-c3cnn4cc(C#N)cnc34)cc2NC2COC2)CC1
8.05

// next record CC(C)(O)[C@H](F)CNC(=O)c1cnc(-c2cnn3cc(Cl)cnc23)cc1NC1CCOC1 (some centres unmarked)
8.52

// next record Cc1nc2cc(F)c(Nc3cc(NC4CCCC4F)c(C(=O)NC[C@@H](F)C(C)(C)O)cn3)cc2s1 (some centres unmarked)
8.49

// next record CN1CCOc2cc(-c3ccc4ncnc(N[C@H]5CC[C@H](N(C)C)CC5)c4c3)cnc21
5.17

// next record O=C(O)c1cccc(-c2ccc3ncnc(N[C@H]4CC[C@H](N5CCOCC5)CC4)c3c2)n1
6.91

// next record CC(C)Nc1cc(-n2ncc3cc(C#N)cnc32)ncc1-c1cn(-c2ccc(F)c(C#N)c2)nn1
6.40

// next record CC(C)Nc1cc(-n2ncc3cc(C#N)cnc32)ncc1-n1cc(CF)nn1
7.47

// next record COc1cc2nn(C3CCC(F)(F)CC3)cc2cc1NC(=O)c1cccc(C)[n+]1[O-]
7.85

// next record CC12CC(c3cn4cc(C(=O)Nc5cccn([C@H]6C[C@H]6F)c5=O)c(OC5CCC5)cc4n3)(CO1)C2 (single isomer, unassigned)
9.70

// next record [2H]C([2H])([2H])OC(C)(C)[C@H](F)CNC(=O)c1cnc(-c2cnn3cc(Cl)cnc23)cc1NC(C)C
8.52

// next record C=CC(=O)N1CCC(N2CC(n3cc(NC(=O)c4cccc(-c5cc[nH]n5)n4)c(C(F)F)n3)C2)CC1
9.20

// next record CC(C)Nc1cc(Nc2ccc3ncsc3c2)ncc1C(=O)NC1CCN(S(C)(=O)=O)CC1
8.30

// next record CNc1cc(-c2ccc3ncnc(N[C@H]4CC[C@H](N5CCC(F)CC5)CC4)c3c2)cnc1F
8.70
